- experimental_target: recombinant guinea pig liver TGase (Cavia cutleri (Guinea pig), UniProt P08587)
- Sequence (P08587 whole entry): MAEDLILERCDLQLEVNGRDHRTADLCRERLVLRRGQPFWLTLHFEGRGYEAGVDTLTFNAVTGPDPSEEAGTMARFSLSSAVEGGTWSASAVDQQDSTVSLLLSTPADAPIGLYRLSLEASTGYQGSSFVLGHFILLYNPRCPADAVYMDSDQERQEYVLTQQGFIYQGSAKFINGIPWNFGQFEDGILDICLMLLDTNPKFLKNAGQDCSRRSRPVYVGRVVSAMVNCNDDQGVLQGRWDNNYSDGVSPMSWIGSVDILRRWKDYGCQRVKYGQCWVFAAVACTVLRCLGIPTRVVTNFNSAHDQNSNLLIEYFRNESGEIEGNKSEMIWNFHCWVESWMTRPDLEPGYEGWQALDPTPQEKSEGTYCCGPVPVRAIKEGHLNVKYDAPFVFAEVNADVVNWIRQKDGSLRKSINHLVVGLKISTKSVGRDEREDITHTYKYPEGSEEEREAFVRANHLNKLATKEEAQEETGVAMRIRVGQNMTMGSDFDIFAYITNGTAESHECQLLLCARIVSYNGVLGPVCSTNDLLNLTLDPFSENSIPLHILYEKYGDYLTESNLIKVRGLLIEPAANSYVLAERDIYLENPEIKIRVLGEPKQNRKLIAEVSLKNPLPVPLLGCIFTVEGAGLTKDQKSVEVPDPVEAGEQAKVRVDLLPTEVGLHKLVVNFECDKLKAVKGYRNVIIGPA
- measurement_description: biochemical
- Type: biochemical
- run_conditions: IC50 (μM), Table 6, value in brackets
Documented IC50 across a set of compounds

INSERT INTO assay_data (smiles_repr, obs_value) VALUES
  ('O=C(/C=C/c1ccc([N+](=O)[O-])cc1)c1cn(Cc2ccccc2[N+](=O)[O-])nn1', '10.7 µM');

# evaluate next
Q: Notebook entry, recombinant guinea pig liver TGase (Cavia cutleri (Guinea pig), UniProt P08587) assay: IC50 of `O=C(/C=C/c1ccc([N+](=O)[O-])cc1)c1cn(Cc2cccc([N+](=O)[O-])c2)nn1` = ?
A: 9.4 µM

* * *

Listed molecules paired with reported IC50
- experimental_target: recombinant guinea pig liver TGase (Cavia cutleri (Guinea pig), UniProt P08587)
- measurement_description: biochemical
- Type: biochemical
- run_conditions: Table 3, influence of the acylated moiety; read-out: IC50 (μM), class symbol

Check out these entries, answers already filled in.
INSERT INTO assay_data (molecule, obs_value) VALUES
  ('O=C(/C=C/c1ccc([N+](=O)[O-])cc1)N1CCc2ccccc21 [Compound 25a, p-Nitrocinnamoyl indolinyl amide]', '> 50 µM'),
  ('O=C(/C=C/c1ccc([N+](=O)[O-])cc1)N1CCCOC1 [Compound 29a]', '> 50 µM'),
  ('O=C(/C=C/c1ccc([N+](=O)[O-])cc1)n1nnc2ccccc21 [Compound 15a, p-Nitrocinnamoyl benzotriazolyl amide]', '> 50 µM'),
  ('O=C(/C=C/c1ccc([N+](=O)[O-])cc1)OCc1ccccc1 [Compound 19a, p-Nitrocinnamoyl benzyl ester]', '> 50 µM'),
  ('CC(C)(C)OC(=O)/C=C/c1ccc([N+](=O)[O-])cc1 [Compound 20a, p-Nitrocinnamoyl t-butyl ester]', '> 50 µM');

Q: Form: Entry = CN(Cc1ccccc1)C(=O)/C=C/c1ccc([N+](=O)[O-])cc1 [Compound 27a, p-Nitrocinnamoyl methylbenzyl amide] | System = recombinant guinea pig liver TGase (Cavia cutleri (Guinea pig), UniProt P08587) | IC50 = ____
A: > 50 µM

Q: Follow-up entry: O=C(C=Cc1ccc([N+](=O)[O-])cc1)N(Cc1ccccc1)Cc1ccccc1 [Compound 26a, p-Nitrocinnamoyl dibenzyl amide]
A: 20 to 50 µM

Q: // repeat for O=C(/C=C/c1ccc([N+](=O)[O-])cc1)c1cc2ccccc2oc1=O [Compound 28a] and report
A: 20 to 50 µM

Q: Repeat with O=C(/C=C/c1ccc([N+](=O)[O-])cc1)Nc1ccccc1 [Compound 22a, p-Nitrocinnamoyl phenyl amide]
A: > 50 µM

* * *

- experimental_target: recombinant guinea pig liver TGase (Cavia cutleri (Guinea pig))
- measurement_description: biochemical
- Type: biochemical
pIC50: −log10 of the molar value.
measure: pIC50

Q: Dear colleague, I am looking for the recorded pIC50 of the following compound: O=C(/C=C/c1ccc([N+](=O)[O-])cc1)c1c[nH]nn1 [Compound 4o]
A: 4.30 to 4.70

Q: And what about the compound O=C(/C=C/c1ccc([N+](=O)[O-])cc1)c1cn(Cc2ccc([N+](=O)[O-])cc2)nn1 [Compound 4d] ?
A: > 4.70

Q: Same question for CCCCCCCCn1cc(C(=O)/C=C/c2ccc([N+](=O)[O-])cc2)nn1 [Compound 4b] please.
A: 4.30 to 4.70

Q: Now the same for O=C(/C=C/c1ccc([N+](=O)[O-])cc1)c1cn(Cc2ccccn2)nn1 [Compound 4e]
A: > 4.70

* * *

Here the recorded IC50 is given for each entry.
- experimental_target: recombinant guinea pig liver TGase (Cavia cutleri (Guinea pig))
- measurement_description: biochemical
- Format: biochemical

INSERT INTO results (molecule, experimental_target, measure, obs_value) VALUES
  ('CC(c1ccccc1)n1cc(C(=O)/C=C/c2ccc([N+](=O)[O-])cc2)nn1 (stereo not shown) [Compound 4k]', 'recombinant guinea pig liver TGase (Cavia cutleri (Guinea pig))', 'IC50', '< 20 µM'),
  ('O=C(/C=C/c1ccc([N+](=O)[O-])cc1)c1cn(C2CCCC2)nn1 [Compound 4c]', 'recombinant guinea pig liver TGase (Cavia cutleri (Guinea pig))', 'IC50', '> 50 µM'),
  ('O=C(/C=C/c1ccc([N+](=O)[O-])cc1)c1cn(Cc2ccccc2)nn1 [Compound 4a]', 'recombinant guinea pig liver TGase (Cavia cutleri (Guinea pig))', 'IC50', '< 20 µM');

We now examine a further molecule.
Q: Please tell me: IC50 of O=C(/C=C/c1ccc([N+](=O)[O-])cc1)N1CCCCC1 [Compound 24a, p-Nitrocinnamoyl piperidinyl amide] , system recombinant guinea pig liver TGase (Cavia cutleri (Guinea pig))?
A: > 50 µM

* * *

Known IC50 of a selection of molecules
- experimental_target: recombinant guinea pig liver TGase (Cavia cutleri (Guinea pig), UniProt P08587)
- measurement_description: biochemical
- Format: biochemical
- run_conditions: Table 1, value in brackets; read-out: IC50
Numbers only here, please. The scale is µM.

// solved cases for IC50 follow
INSERT INTO measurements (molecule, experimental_target, obs_value) VALUES
  ('Nc1ccc(/C=C/C(=O)c2cccnc2)cc1 [Compound 30r]', 'recombinant guinea pig liver TGase (Cavia cutleri (Guinea pig), UniProt P08587)', 148),
  ('COC(=O)c1ccc(/C=C/C(=O)n2nnc3ccccc32)cc1 [Compound 15q]', 'recombinant guinea pig liver TGase (Cavia cutleri (Guinea pig), UniProt P08587)', 27),
  ('O=C(C=Cc1ccc([N+](=O)[O-])cc1)On1nnc2ccccc21 [Compound 14a, p-Nitrocinnamoyl oxybenzotriazolyl amide]', 'recombinant guinea pig liver TGase (Cavia cutleri (Guinea pig), UniProt P08587)', 43);

Now, please, on to the next molecule.
Q: Quick check: IC50 of O=C(/C=C/c1ccc([N+](=O)[O-])cc1)n1nnc2ccccc21 [Compound 15a, p-Nitrocinnamoyl benzotriazolyl amide] ?
A: 74

* * *

- experimental_target: recombinant guinea pig liver TGase (Cavia cutleri (Guinea pig), UniProt P08587)
- measurement_description: biochemical
- Type: biochemical
- run_conditions: Table 1, substituent on the cinnamoyl aromatic group; read-out: IC50 (μM), class symbol
measure: IC50

INSERT INTO assay_data (compound, experimental_target, obs_value) VALUES
  ('O=C(/C=C/c1ccccc1)n1nnc2ccccc21 [Compound 15j, Cinnamoyl benzotriazolyl amide]', 'recombinant guinea pig liver TGase (Cavia cutleri (Guinea pig), UniProt P08587)', '> 50 µM'),
  ('O=C(C=Cc1cccc([N+](=O)[O-])c1)On1nnc2ccccc21 [Compound 14b, m-Nitrocinnamoyl oxybenzotriazolyl amide]', 'recombinant guinea pig liver TGase (Cavia cutleri (Guinea pig), UniProt P08587)', '20 to 50 µM'),
  ('CC(=O)Nc1ccc(/C=C/C(=O)c2cccnc2)cc1 [Compound 30t]', 'recombinant guinea pig liver TGase (Cavia cutleri (Guinea pig), UniProt P08587)', '20 to 50 µM'),
  ('O=C(/C=C/c1ccccc1Cl)n1nnc2ccccc21 [Compound 15m, o-Chlorocinnamoyl benzotriazolyl amide]', 'recombinant guinea pig liver TGase (Cavia cutleri (Guinea pig), UniProt P08587)', '> 50 µM');

Q: Report IC50 for O=C(/C=C/c1ccc([N+](=O)[O-])cc1)c1cccnc1 [Compound 30a] please.
A: 20 to 50 µM

Q: # repeat for O=C(C=Cc1ccccc1[N+](=O)[O-])On1nnc2ccccc21 [Compound 14c, o-Nitrocinnamoyl oxybenzotriazolyl amide]
A: > 50 µM

* * *

- experimental_target: recombinant guinea pig liver TGase (Cavia cutleri (Guinea pig), UniProt P08587)
- measurement_description: biochemical
- Assay type: biochemical
measure: TGase inhibitory activity (in words)

INSERT INTO results (molecule, obs_value) VALUES
  ('O=C(/C=C/c1ccc([N+](=O)[O-])cc1)c1cn(C(c2ccccc2)c2ccccc2)nn1 [Compound 4l]', 'relatively poor activity'),
  ('O=C(/C=C/c1ccc([N+](=O)[O-])cc1)c1cn(C2CCCC2)nn1 [Compound 4c]', 'relatively poor activity');

* * *

- experimental_target: recombinant guinea pig liver TGase (Cavia cutleri (Guinea pig), UniProt P08587)
- measurement_description: biochemical
- Type: biochemical
- run_conditions: Table 1, value in brackets; read-out: IC50
Listing of recorded IC50 by entry.

// below: answered compounds
INSERT INTO results (compound, experimental_target, obs_value) VALUES
  ('Cc1ccccc1/C=C/C(=O)n1nnc2ccccc21 [Compound 15i, o-Methylcinnamoyl benzotriazolyl amide]', 'recombinant guinea pig liver TGase (Cavia cutleri (Guinea pig), UniProt P08587)', '> 100 µM'),
  ('Cc1cccc(/C=C/C(=O)n2nnc3ccccc32)c1 [Compound 15h, m-Methylcinnamoyl benzotriazolyl amide]', 'recombinant guinea pig liver TGase (Cavia cutleri (Guinea pig), UniProt P08587)', '> 100 µM');

Now look at this entry.
Q: Report IC50 for O=C(/C=C/c1ccccc1Cl)n1nnc2ccccc21 [Compound 15m, o-Chlorocinnamoyl benzotriazolyl amide] please.
A: > 100 µM
